biological target: BK channels (Oryctolagus cuniculus, UniProt Q9BG98); construct: wherein the native BK channels were more sensitive to Ca^2+; from tissue; test: Single channel recordings, inside-out patch clamp, voltage ramps, isolated smooth muscle cells of the rabbit bladder; assay type: cell-based; settings: inside out patches on rabbit smooth muscle cells
Sequence (Q9BG98 whole entry): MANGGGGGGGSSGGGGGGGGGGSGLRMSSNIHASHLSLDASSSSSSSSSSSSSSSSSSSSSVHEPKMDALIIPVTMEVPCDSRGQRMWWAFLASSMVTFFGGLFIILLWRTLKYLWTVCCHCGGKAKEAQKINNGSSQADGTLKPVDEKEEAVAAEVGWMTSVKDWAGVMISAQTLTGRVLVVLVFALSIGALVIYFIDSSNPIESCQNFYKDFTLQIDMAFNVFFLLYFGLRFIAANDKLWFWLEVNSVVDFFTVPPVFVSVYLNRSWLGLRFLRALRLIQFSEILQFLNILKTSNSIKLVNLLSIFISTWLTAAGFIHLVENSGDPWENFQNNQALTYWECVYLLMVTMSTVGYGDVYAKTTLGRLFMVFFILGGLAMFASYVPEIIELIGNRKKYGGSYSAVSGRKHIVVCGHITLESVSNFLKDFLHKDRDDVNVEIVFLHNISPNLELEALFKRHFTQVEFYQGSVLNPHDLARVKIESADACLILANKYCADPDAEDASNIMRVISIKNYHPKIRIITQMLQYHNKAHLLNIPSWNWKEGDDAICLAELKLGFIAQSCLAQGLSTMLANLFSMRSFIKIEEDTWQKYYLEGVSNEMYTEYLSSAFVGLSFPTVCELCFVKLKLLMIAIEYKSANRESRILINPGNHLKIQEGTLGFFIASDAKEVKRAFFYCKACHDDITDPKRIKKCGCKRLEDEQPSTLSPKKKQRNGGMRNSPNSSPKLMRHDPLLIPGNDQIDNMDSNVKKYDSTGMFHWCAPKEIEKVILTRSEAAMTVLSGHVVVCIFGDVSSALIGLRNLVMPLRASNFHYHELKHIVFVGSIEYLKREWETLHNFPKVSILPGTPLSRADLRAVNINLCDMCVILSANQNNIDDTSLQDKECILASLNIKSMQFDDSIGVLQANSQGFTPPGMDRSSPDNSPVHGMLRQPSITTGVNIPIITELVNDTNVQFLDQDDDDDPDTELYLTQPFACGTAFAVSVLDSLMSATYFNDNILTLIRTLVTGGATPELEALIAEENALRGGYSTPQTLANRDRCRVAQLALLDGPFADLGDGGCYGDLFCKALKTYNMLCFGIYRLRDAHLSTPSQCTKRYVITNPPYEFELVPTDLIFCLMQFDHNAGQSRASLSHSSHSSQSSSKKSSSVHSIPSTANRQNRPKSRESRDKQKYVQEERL
readoutType: effect on BK channel activity, in words (SAR discussion based on V1/2 data)

recordSmiles	experimentalValue
Nc1c(S(=O)(=O)[O-])cc(Nc2cccc(Cc3ccccc3)c2)c2c1C(=O)c1ccccc1C2=O.[Na+]	BK channel agonists
CCc1ccc(Nc2cc(S(=O)(=O)[O-])c(N)c3c2C(=O)c2ccccc2C3=O)cc1.[Na+]	BK channel openers
CCc1ccccc1Nc1cc(S(=O)(=O)[O-])c(N)c2c1C(=O)c1ccccc1C2=O.[Na+]	BK channel agonists
CC(C)c1cccc(Nc2cc(S(=O)(=O)[O-])c(N)c3c2C(=O)c2ccccc2C3=O)c1.[Na+]	BK channel agonists
Nc1c(S(=O)(=O)[O-])cc(Nc2ccc(Cc3ccccc3)cc2)c2c1C(=O)c1ccccc1C2=O.[Na+]	BK channel openers

Please turn your attention to the following entry.
Input "CC(C)(C)c1cccc(Nc2cc(S(=O)(=O)[O-])c(N)c3c2C(=O)c2ccccc2C3=O)c1.[Na+]" . Output effect on BK channel activity, in words (SAR discussion based on V1/2 data): BK channel agonists

---

Entries and their ΔV1/2 (mV) in 100 nm Ca^2+ values follow.
target: BK channels (Oryctolagus cuniculus, UniProt Q9BG98); construct: wherein the native BK channels were more sensitive to Ca^2+; from tissue; experiment: Single channel recordings, inside-out patch clamp, voltage ramps, isolated smooth muscle cells of the rabbit bladder; type: cell-based; settings: Table 2; 10 μM compound; inside-out patch
A number alone suffices; assume mV.

Nc1c(S(=O)(=O)[O-])cc(Nc2cccc3c2CCCC3)c2c1C(=O)c1ccccc1C2=O.[Na+] −116.2

Input "Nc1c(S(=O)(=O)[O-])cc(Nc2cccc(Cc3ccccc3)c2)c2c1C(=O)c1ccccc1C2=O.[Na+]" . Output ΔV1/2 (mV) in 100 nm Ca^2+: −120.0

Input "CC(C)c1cccc(Nc2cc(S(=O)(=O)[O-])c(N)c3c2C(=O)c2ccccc2C3=O)c1.[Na+]" . Output ΔV1/2 (mV) in 100 nm Ca^2+: −113.1

Input "Nc1c(C(=O)O)cc(Nc2cccc(C(F)(F)F)c2)c2c1C(=O)c1ccccc1C2=O" . Output ΔV1/2 (mV) in 100 nm Ca^2+: −98.8

---

Entries and their ΔV1/2 (mV) in 100 nm Ca^2+ values follow.
molecular target: BK channels (Oryctolagus cuniculus); construct: wherein the native BK channels were more sensitive to Ca^2+; from tissue; assay: Single channel recordings, inside-out patch clamp, voltage ramps, isolated smooth muscle cells of the rabbit bladder; format: cell-based; conditions: Table 2; 10 μM compound; inside-out patch
Please state the number and follow it with the unit.

These solved cases illustrate the format of a correct answer.
CC(C)c1ccccc1Nc1cc(S(=O)(=O)[O-])c(N)c2c1C(=O)c1ccccc1C2=O.[Na+] −120.0 mV
CCc1ccc(Nc2cc(S(=O)(=O)[O-])c(N)c3c2C(=O)c2ccccc2C3=O)cc1.[Na+] −78.5 mV

Input "CC(C)c1ccc(Nc2cc(S(=O)(=O)[O-])c(N)c3c2C(=O)c2ccccc2C3=O)cc1.[Na+]" . Output ΔV1/2 (mV) in 100 nm Ca^2+: −83.4 mV

Input "Nc1c(S(=O)(=O)[O-])cc(Nc2cccc3ccccc23)c2c1C(=O)c1ccccc1C2=O.[Na+]" . Output ΔV1/2 (mV) in 100 nm Ca^2+: −53.4 mV

Input "CCc1ccccc1Nc1cc(S(=O)(=O)[O-])c(N)c2c1C(=O)c1ccccc1C2=O.[Na+]" . Output ΔV1/2 (mV) in 100 nm Ca^2+: −84.8 mV

Input "Nc1c(S(=O)(=O)[O-])cc(Nc2ccc3c(c2)CCC3)c2c1C(=O)c1ccccc1C2=O.[Na+]" . Output ΔV1/2 (mV) in 100 nm Ca^2+: −87.6 mV

Input "Nc1c(S(=O)(=O)[O-])cc(Nc2cccc(-c3ccccc3)c2)c2c1C(=O)c1ccccc1C2=O.[Na+]" . Output ΔV1/2 (mV) in 100 nm Ca^2+: −60.0 mV

---

Entries and their ΔV1/2 (mV) in 100 nm Ca^2+ values follow.
target: BK channels (Oryctolagus cuniculus, UniProt Q9BG98); construct: wherein the native BK channels were more sensitive to Ca^2+; from tissue; assay: Single channel recordings, inside-out patch clamp, voltage ramps, isolated smooth muscle cells of the rabbit bladder; type: cell-based; conditions: Table 2; 10 μM compound; inside-out patch
A number alone suffices; assume mV.

Nc1c(S(=O)(=O)[O-])cc(Nc2ccc3ccccc3c2)c2c1C(=O)c1ccccc1C2=O.[Na+] −103.8

Input "Nc1c(S(=O)(=O)[O-])cc(Nc2cccc(O)c2)c2c1C(=O)c1ccccc1C2=O.[Na+]" . Output ΔV1/2 (mV) in 100 nm Ca^2+: −44.1

Input "CC(C)(C)c1cccc(Nc2cc(S(=O)(=O)[O-])c(N)c3c2C(=O)c2ccccc2C3=O)c1.[Na+]" . Output ΔV1/2 (mV) in 100 nm Ca^2+: −94.9

---

target: BK channels (Oryctolagus cuniculus); construct: wherein the native BK channels were more sensitive to Ca^2+; from tissue; experiment: Single channel recordings, inside-out patch clamp, voltage ramps, isolated smooth muscle cells of the rabbit bladder; format: cell-based; settings: Table 1; 10 μM compound; inside-out patch; V1/2 control vs drug
readoutType: ΔV1/2 (mV) in 100 nm Ca^2+
A number alone suffices; assume mV.

These solved cases illustrate the format of a correct answer.
Nc1c(S(=O)(=O)[O-])cc(NC2CCCC2)c2c1C(=O)c1ccccc1C2=O.[Na+] −24.24
Nc1c(S(=O)(=O)[O-])cc(Nc2cccc(OC(F)(F)F)c2)c2c1C(=O)c1ccccc1C2=O.[Na+] −84.0

Input "Nc1c(S(=O)(=O)[O-])cc(NC2CCCCC2)c2c1C(=O)c1ccccc1C2=O.[Na+]" . Output ΔV1/2 (mV) in 100 nm Ca^2+: −54.37

Input "Nc1c(S(=O)(=O)[O-])cc(Nc2cc(F)cc(F)c2)c2c1C(=O)c1ccccc1C2=O.[Na+]" . Output ΔV1/2 (mV) in 100 nm Ca^2+: −24.2

Input "Nc1c(S(=O)(=O)[O-])cc(Nc2ccccc2)c2c1C(=O)c1ccccc1C2=O.[Na+]" . Output ΔV1/2 (mV) in 100 nm Ca^2+: −51.0

---

Entries and their ΔV1/2 (mV) in 100 nm Ca^2+ values follow.
target: BK channels (Oryctolagus cuniculus, UniProt Q9BG98); construct: wherein the native BK channels were more sensitive to Ca^2+; from tissue; assay: Single channel recordings, inside-out patch clamp, voltage ramps, isolated smooth muscle cells of the rabbit bladder; format: cell-based; details: Table 1; 10 μM compound; inside-out patch; V1/2 control vs drug
A number alone suffices; assume mV.

COc1ccccc1Nc1cc(S(=O)(=O)[O-])c(N)c2c1C(=O)c1ccccc1C2=O.[Na+] −54.1
Nc1c(S(=O)(=O)[O-])cc(NC2CCCCCC2)c2c1C(=O)c1ccccc1C2=O.[Na+] −61.1
Cc1ccc(Nc2cc(S(=O)(=O)[O-])c(N)c3c2C(=O)c2ccccc2C3=O)cc1C(F)(F)F.[Na+] −145.4

Input "Nc1c(S(=O)(=O)[O-])cc(Nc2ccc(Cl)c(C(F)(F)F)c2)c2c1C(=O)c1ccccc1C2=O.[Na+]" . Output ΔV1/2 (mV) in 100 nm Ca^2+: −97.8

Input "Nc1c(S(=O)(=O)[O-])cc(Nc2ccc(F)c(C(F)(F)F)c2)c2c1C(=O)c1ccccc1C2=O.[Na+]" . Output ΔV1/2 (mV) in 100 nm Ca^2+: −83.2

Input "Cc1cccc(Nc2cc(S(=O)(=O)[O-])c(N)c3c2C(=O)c2ccccc2C3=O)c1.[Na+]" . Output ΔV1/2 (mV) in 100 nm Ca^2+: −53.5

Input "Nc1c(S(=O)(=O)[O-])cc(Nc2cccc(S(=O)(=O)O)c2)c2c1C(=O)c1ccccc1C2=O.[Na+]" . Output ΔV1/2 (mV) in 100 nm Ca^2+: −23.2

Input "CCc1cccc(Nc2cc(S(=O)(=O)[O-])c(N)c3c2C(=O)c2ccccc2C3=O)c1.[Na+]" . Output ΔV1/2 (mV) in 100 nm Ca^2+: −87.1

Input "Nc1c(S(=O)(=O)[O-])cc(Nc2ccc(Cc3ccccc3)cc2)c2c1C(=O)c1ccccc1C2=O.[Na+]" . Output ΔV1/2 (mV) in 100 nm Ca^2+: −77.8

Input "Nc1c(S(=O)(=O)[O-])cc(Nc2cccc(F)c2)c2c1C(=O)c1ccccc1C2=O.[Na+]" . Output ΔV1/2 (mV) in 100 nm Ca^2+: −28.4

Origin of values: patent US9877940B2
